system: Echinochloa crus-galli (ECHCG); experiment: Pre-emergence herbicidal activity, glasshouse pot test; format: in vivo; details: Echinochloa crus-galli, 312 h; Rate 250 g/ha; pre-emergence spray; evaluated after 13 days; read-out: Pre-emergence activity ECHCG (100=total damage to plant; 0=no damage to plant)
Property Name: pest or weed control at 250 g/ha (%)
Give the value, in units of %, as a plain number.

# count of solved cases: 5
| Molecule | pest or weed control at 250 g/ha [%] |
| --- | --- |
| CCc1ccc(Oc2ccc(C(F)(F)F)cn2)cc1C1=C(O)CC(C)(C)CC1=O | 100 |
| CCc1ccc(Oc2ccc(Br)cc2C#N)cc1C1=C(O)C(C)(C)OC(C)(C)C1=O | 60 |
| CCc1ccc(Oc2ccc(Br)cc2[N+](=O)[O-])cc1C1=C(O)C(C)(C)OC(C)(C)C1=O | 80 |
| CCc1ccc(Oc2ccc(Cl)cc2F)cc1C1=C(O)[C@H]2CC[C@H](C2)C1=O (single isomer, unassigned) | 100 |
| CCc1ccc(Oc2ccc(Cl)c(Cl)c2)cc1C1=C(O)C(C)(C)OC(C)(C)C1=O | 90 |

Looking for the measured pest or weed control at 250 g/ha of "CCc1ccc(Oc2ccc(Cl)cc2F)cc1C1=C(O)CC2(CCOCC2)CC1=O" , can you help?
100

Same for "CCc1ccc(Oc2ccc3cc(Cl)ccc3n2)cc1C1=C(O)[C@@H]2CC[C@](C)(C1=O)C2(C)C"
100

Then "CCc1ccc(Oc2ncc(C(F)(F)F)cc2C(F)(F)F)cc1C1=C(O)[C@H]2CC[C@H](C2)C1=O" ?
100

Repeat with "CCc1ccc(Oc2ccc3nc(Cl)cn3n2)cc1C1=C(O)C(C)(C)OC(C)(C)C1=O"
90

Here is the next molecule: "CCc1ccc(Oc2ccc(F)cc2F)cc1C1=C(O)CCCC1=O"
80

Value source: patent US8865623B2
